Test system: MDCKII-hMDR1 monolayer (Pgp efflux transporter)
ASSAY EXPLANATION: MDCKII-hMDR1 monolayer permeability and Pgp-mediated efflux
Format: in vitro ADME
RUN PARAMETERS: 3 μM, with GF918
RECORDED ENDPOINT: Mass balance A–B+GF918 (%)
Reply with just the number (in %).

See these solved cases before continuing.
COMPOUND	RECORDED MEASUREMENT
O=C(Nc1ccc2c(c1)B(O)OC2)c1ccc(F)cc1C(F)(F)F [SCYX-6759]	95
CC1(C)OB(O)c2cc(NC(=O)c3ccc(F)cc3C(F)(F)F)ccc21 [SCYX-7158]	75
O=C(Nc1ccc2c(c1)B(O)OC2)c1ccccc1C(F)(F)F [AN3520]	90

Please look at the following compound next.
Input line: Which Mass balance A–B+GF918 value is on record for [O-][S+](c1ccc(Cl)cc1)c1ccc2c(c1)B(O)OC2 (stereo not shown) [AN2920] ?
Output line: 99

###

System: P-gp (human MDR1)
ASSAY EXPLANATION: MDCKII-hMDR1 monolayer permeability and Pgp-mediated efflux
Type: in vitro ADME
RUN PARAMETERS: dog, MDCK-MDR1; 3 μM; read-out: Papp, A–B direction
Entries and their Papp A→B at 1 h, 3 μM

COMPOUND	RECORDED MEASUREMENT
O=C(Nc1ccc2c(c1)B(O)OC2)c1ccccc1C(F)(F)F	42.4 ×10⁻⁶ cm/s
O=C(Nc1ccc2c(c1)B(O)OC2)c1ccc(F)cc1C(F)(F)F	37.9 ×10⁻⁶ cm/s

Please look at the following compound next.
Input line: Which Papp A→B at 1 h, 3 μM value is on record for [O-][S+](c1ccc(Cl)cc1)c1ccc2c(c1)B(O)OC2 (stereo not drawn) ?
Output line: 43.8 ×10⁻⁶ cm/s

###

ASSAY EXPLANATION: Binding to human plasma protein by rapid equilibrium dialysis
Type: in vitro ADME
RUN PARAMETERS: 1 μg mL^−1
RECORDED ENDPOINT: Mass balance (%)
Reply with just the number (in %).

See these solved cases before continuing.
COMPOUND	OUTPUT UNIT	Mass balance
CC1(C)OB(O)c2cc(NC(=O)c3ccc(F)cc3C(F)(F)F)ccc21	%	110
[O-][S+](c1ccc(Cl)cc1)c1ccc2c(c1)B(O)OC2 (stereo not shown)	%	106
O=C(Nc1ccc2c(c1)B(O)OC2)c1ccc(F)cc1C(F)(F)F	%	97

Please look at the following compound next.
Input line: Which Mass balance value is on record for O=C(Nc1ccc2c(c1)B(O)OC2)c1ccccc1C(F)(F)F ?
Output line: 110

###

System: P-gp (human MDR1)
ASSAY EXPLANATION: MDCKII-hMDR1 monolayer permeability and Pgp-mediated efflux
Type: in vitro ADME
RUN PARAMETERS: dog, MDCK-MDR1, with GF120918 2 μM; 3 μM, with 2 μM GF120918; read-out: Papp, A–B direction+GF918
RECORDED ENDPOINT: Papp A→B at 1 h, 3 μM (×10⁻⁶ cm/s)
Reply with just the number (in ×10⁻⁶ cm/s).

COMPOUND	RECORDED MEASUREMENT
O=C(Nc1ccc2c(c1)B(O)OC2)c1ccc(F)cc1C(F)(F)F	38.6

Input line: Which Papp A→B at 1 h, 3 μM value is on record for O=C(Nc1ccc2c(c1)B(O)OC2)c1ccccc1C(F)(F)F ?
Output line: 43.4

Input line: Param item: [O-][S+](c1ccc(Cl)cc1)c1ccc2c(c1)B(O)OC2 (stereo not drawn)
Output line: 46.5
